- procedure summary: binders of probe aHhip on microarray, primary screen, stem cell growth factor project, biochemical, small-molecule microarray, fluorescence 635/667 (AID 1087);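 note: score merges spot fluorescence at 667nm with spot signal to noise ratio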
- settings: higher = more signal
recorded endpoint: composite z-score

>>> val("CO[C@H]1O[C@H](CO)[C@@H](OC(=O)Nc2ccccc2-c2ccccc2)[C@H](OC(=O)Nc2ccccc2-c2ccccc2)[C@H]1OC(=O)Nc1ccccc1-c1ccccc1")
0.245
>>> val("Cc1ccc(S(=O)(=O)N2CC(C(=O)O)=CCC2c2ccccc2)cc1 (configuration not stated)")
-0.204
>>> val("CC1CC/C=C\\[C@H]2OC34C=CCN(Cn5nnc6ccccc65)C(=O)[C@H]3N(CCCO)C(=O)[C@@H]4C2C(=O)O1 (some centres not stated)")
-0.196
>>> val("NC(=O)[C@]1(Cc2ccccc2)N=C(c2ccc(OCCCO)cc2)O[C@@H]1c1ccccc1")
-0.214
>>> val("CCCCC(=O)N(Cc1ccccc1F)[C@@H]1CC(C(=O)NCCO)=C[C@H](Oc2c(I)cc(CO)cc2OC)[C@H]1O")
0.27
>>> val("CC(C)[Si]1(C(C)C)O[C@@H](c2ccccc2)c2cc(-c3ccc(-c4ccc(Cl)c(Cl)c4)o3)nc(CCc3ccccc3)c21")
0.269
>>> val("COC(=O)[C@@]1(Cc2ccccc2)[C@H]2c3cc(C(=O)N(C)C)n(Cc4cc(F)c(F)c(F)c4)c3C[C@H]2CN1C(=O)c1ccccc1")
0.776

====

- procedure summary: JC-1 mitochondrial signal, unstimulated MM1S myeloma – cell-based, JC-1 fluorescence, 24 h, 100 nL compound, profiling panel (AID 1170); note: test concentration not given here
- settings: MM1S mitochondrial potential, higher = more signal
recorded endpoint: z-score

>>> val("CCOC(=O)C1=CC[C@@H](c2cccc(Cl)c2)N(S(=O)(=O)c2ccc(C)cc2)[C@H]1c1ccc(C#N)cc1")
-1.29
>>> val("[N-]=[N+]=NCc1ccccc1C[C@]1(C(=O)NCc2ccccc2)COC(c2ccc(OCCCO)cc2)=N1")
-2.3
>>> val("CC(C)C[C@@H]1NC(=O)[C@@H]2C[C@H](C(=O)NCCCCN(C)C)[C@H](c3ccc(O)cc3)N2C1=O")
0.218
>>> val("[N-]=[N+]=NCc1ccccc1[C@@H]1OC(c2ccc(OCCCO)cc2)=N[C@]1(Cc1ccccc1)C(=O)O")
-0.969
>>> val("COc1ccc([Si](C)(C)[C@H]2[C@H](CC(=O)N3Cc4ccccc4C[C@H]3CO)O[C@@]3(C(=O)N(Cc4cccc(I)c4)c4ccccc43)[C@@H]2C)cc1")
-0.605
>>> val("COc1ccc(C(=O)Nc2cccc(CN3C(=O)[C@@]4(O[C@@H](CCn5cc([C@H](O)c6ccccc6)nn5)[C@H]([Si](C)(C)c5ccc(OC)cc5)[C@H]4C)c4ccccc43)c2)cc1")
-2.24
>>> val("COC(=O)[C@@]1(Cc2ccc(F)cc2)[C@H]2c3cc(C(=O)N4CCCC4)n(Cc4ccc(Cl)c(C(F)(F)F)c4)c3C[C@H]2CN1C(=O)c1ccccc1")
-1.96

====

- procedure summary: S. pombe growth modifiers, basal conditions – strain 972, OD600, 24 h, no modulator, primary screen (AID 1090);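 note: basal condition with compound alone and no growth modifier present; test concentration not given here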
- settings: S. pombe 972 growth, called active from +8 up or from −8 down
Activity calls are given as the source filed them.
Outcome codes: YES = active, NO = inactive

>>> group_label("C=C(COC)C(=O)CC[C@@H](OC(=O)c1ccccc1-c1ccccc1C(=O)O)c1ccc(CO)o1")
"YES"
>>> group_label("CCCC[C@@H]1C[C@H]1[C@@H](NC(=O)c1ccccc1)c1ccc(-c2ccccc2)cc1")
"NO"
>>> group_label("C=CCOC(=O)[C@@H]1[C@H]2C(=O)O[C@H](c3ccccc3)[C@H](c3ccccc3)N2[C@H](c2ccc(OCCOC(=O)[C@H]3C[C@H]4C(=O)N[C@@H](CCCC[N+](C)(C)C)C(=O)N4[C@H]3c3cccc(OCCO)c3)cc2)[C@@]12C(=O)Nc1ccc(I)cc12")
"NO"
>>> group_label("C=CCC(OC(C)=O)[C@@H]1[C@@H](N(Cc2ccc(-c3ccccc3)cc2)C(=O)c2ccc(C)cc2)c2cc(OCCCO)ccc2N1C(=O)c1ccc2ccccc2n1 (stereo not given in full)")
"NO"
>>> group_label("O=C1C2C=CC(C(O)C3CC=CCC3)N(n3cnnc3)C2C(=O)N1Cc1ccccc1 (stereo not given)")
"NO"
>>> group_label("C=CCC(OC(C)=O)[C@@H]1[C@@H](N(Cc2cc3ccccc3o2)C(=O)c2ccc(-c3ccccc3)cc2)c2cc(OCCCO)ccc2N1C(=O)Cc1ccc2ccccc2c1 (stereo not given in full)")
"NO"
>>> group_label("O=c1cccc(-c2ccccc2)o1")
"NO"
>>> group_label("COc1ccc([Si](C)(C)[C@H]2[C@H](CC(=O)N3CCC[C@H]3CO)O[C@@]3(C(=O)N(Cc4cccc(N5CCC5=O)c4)c4ccccc43)[C@@H]2C)cc1")
"NO"
>>> group_label("O=C1c2ccccc2[C@@]2(Cc3ccccc3N(Cc3ccccc3)C2=O)[C@H](c2ccc(CO)cc2)N1Cc1ccccc1C(F)(F)F")
"NO"
>>> group_label("[N-]=[N+]=NCc1ccccc1C[C@]1(C(N)=O)N=C(c2ccc(OCCCO)cc2)O[C@H]1c1ccccc1N=[N+]=[N-]")
"NO"
>>> group_label("O=C1O[C@H](c2ccccc2)[C@H](c2ccccc2)N2[C@H]1[C@@H](C(=O)N1CCCCCCC1)[C@]1(C(=O)Nc3ccc(C#CC4=CCCCC4)cc31)[C@H]2c1ccc(O)cc1")
"NO"
>>> group_label("CN1C(=O)C2C=CC(C(O)c3ccccc3)N(NC(=O)OC(C)(C)C)C2C1=O (stereo not given)")
"NO"
>>> group_label("Cc1ccccc1/C=C/C=O")
"NO"
>>> group_label("CCOC(=O)C=Cc1cccc(OC)c1O")
"NO"
>>> group_label("CC(C)(C)OC(=O)CC[C@@]1(C(=O)NCC(O)CO)N=C(c2ccc(OCCCO)cc2)O[C@@H]1c1ccccc1 (stereo not given in full)")
"NO"

====

Below: a set of entries, each annotated with reported composite z-score.
- tested target: Follistatin-related protein 3 (Homo sapiens) (UniProt O95633)
- Sequence (O95633 whole entry, looked up): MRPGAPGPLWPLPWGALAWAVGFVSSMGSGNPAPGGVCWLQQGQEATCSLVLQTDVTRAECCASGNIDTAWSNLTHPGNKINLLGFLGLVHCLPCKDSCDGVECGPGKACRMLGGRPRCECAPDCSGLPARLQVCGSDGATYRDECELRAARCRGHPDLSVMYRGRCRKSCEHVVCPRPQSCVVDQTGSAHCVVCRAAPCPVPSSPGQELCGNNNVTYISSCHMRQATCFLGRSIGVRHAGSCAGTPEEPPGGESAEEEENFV
- procedure summary: compounds binding follistatin-related protein 3 – biochemical, small-molecule microarray, 635 nm fluorescence, primary screen (AID 1105);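 note: score merges emission near 667 nm and signal to noise per printed spot across three slides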
- settings: FSTL3 binding, higher = more signal
recorded endpoint: composite z-score

>>> val("CCN(CC)c1ccc(N2CC=CC34O[C@@H]5/C=C\\CCCOC(=O)C5[C@H]3C(=O)N(CCCO)[C@@H]4C2=O)cc1 (stereo partly specified)")
-0.88
>>> val("CN(C)CCCCCCNC(=O)[C@@H]1C[C@@H]2C(=O)NCC(=O)N2[C@@H]1c1cccc(OCCO)c1")
1.48
>>> val("[N-]=[N+]=NCc1ccccc1C[C@]1(C(=O)NCC(O)CO)COC(c2ccc(OCCCO)cc2)=N1 (stereo partly specified)")
0.324
>>> val("COC(=O)[C@@]1(Cc2ccc(OC)cc2)[C@H]2c3cc(C(=O)N4CCCC4)n(CCN4CCOCC4)c3C[C@H]2CN1C(=O)c1ccccc1")
0.629
>>> val("COCCOC(=O)N1C(=O)[C@@]2(c3cc(C#Cc4ccc(OC)cc4)ccc31)[C@H](C(N)=O)[C@H]1C(=O)O[C@H](c3ccccc3)[C@H](c3ccccc3)N1[C@@H]2c1ccc(O)cc1")
-1.95
>>> val("C=C(C(=O)CC[C@H](OC(=O)c1cccnc1)c1ccccc1OCCO)C(C)C")
1.13
>>> val("CCCNC(=O)[C@@]1(C)c2ccccc2C(=O)N(Cc2ccc(OC(F)(F)F)cc2)[C@H]1c1ccc(CO)cc1")
-0.401
>>> val("Cc1ccc(S[C@]2(C(=O)NCC(C)C)CC(=O)N(Cc3ccccc3)[C@@H]2c2ccc(CO)cc2)cc1")
-0.979
>>> val("C=CC[C@]1(C(=O)O)N=C(c2ccc(OCCCO)cc2)O[C@H]1c1ccccc1CN=[N+]=[N-]")
0.0521
>>> val("C=CCC(OC(C)=O)[C@@H]1[C@@H](N(Cc2ccc(-c3ccccc3)cc2)C(=O)c2ccc(C)cc2)c2cc(OCCCO)ccc2N1C(=O)Cc1ccc(OC)cc1 (stereo partly specified)")
0.0762
>>> val("C=CCN1Cc2ccccc2C[C@]2(N=C(c3ccc(OCCCO)cc3)O[C@@H]2c2ccccc2)C1=O")
1.25
>>> val("C=C(CCCC)C(=O)CC[C@H](OC(=O)c1ccccc1-c1ccccc1C(=O)O)c1ccc(CO)o1")
1.2
>>> val("CN1C(=O)C2C=CC(C(O)C(C)(C)C)N(Nc3ccccc3)C2C1=O (stereo unspecified)")
-0.543
>>> val("CCCCCCC#C[Si](O[C@H](c1ccccc1)c1cn([C@H](C)c2ccccc2)nn1)(C(C)C)C(C)C")
0.841
>>> val("O=C1OCC=C[C@H]2OC34C=CCN(CCN5CCOCC5)C(=O)[C@H]3N(CCCCCCO)C(=O)[C@@H]4[C@@H]12 (stereo partly specified)")
0.376
>>> val("CC(=O)N1Cc2ccccc2C[C@@]2(N=C(c3ccc(OCCCO)cc3)O[C@H]2c2ccccc2)C1=O")
1.19
